All figures here come from patent US20120252796A1.

# Assayed system: PCSK9 (Homo sapiens)
# Sequence (Q8NBP7 153-692): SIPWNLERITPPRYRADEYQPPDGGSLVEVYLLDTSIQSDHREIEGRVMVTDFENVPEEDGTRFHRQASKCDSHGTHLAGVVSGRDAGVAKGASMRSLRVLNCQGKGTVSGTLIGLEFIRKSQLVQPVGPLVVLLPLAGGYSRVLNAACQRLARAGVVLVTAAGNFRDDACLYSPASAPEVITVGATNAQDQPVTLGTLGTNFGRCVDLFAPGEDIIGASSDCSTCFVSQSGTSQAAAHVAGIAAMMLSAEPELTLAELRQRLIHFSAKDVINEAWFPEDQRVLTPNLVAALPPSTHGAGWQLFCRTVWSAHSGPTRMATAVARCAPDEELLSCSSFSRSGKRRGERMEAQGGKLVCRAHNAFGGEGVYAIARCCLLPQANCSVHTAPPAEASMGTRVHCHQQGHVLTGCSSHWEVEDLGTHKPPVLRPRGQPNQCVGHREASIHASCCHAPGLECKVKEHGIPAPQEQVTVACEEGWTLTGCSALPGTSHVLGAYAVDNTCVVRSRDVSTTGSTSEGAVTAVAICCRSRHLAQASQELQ
# Sequence (Q8NBP7 31-152 partner limits assumed): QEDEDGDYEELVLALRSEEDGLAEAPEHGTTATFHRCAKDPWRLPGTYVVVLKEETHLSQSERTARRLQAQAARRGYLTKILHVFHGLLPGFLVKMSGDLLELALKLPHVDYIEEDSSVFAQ
# Method: PCSK9-LDLR in vitro Binding Assay (ELISA)
# Run parameters: Concentration 10 μM
Measure name: inhibition at 10 µM (%)

Solved cases below.
[[record]]
compound = "Cc1ccc(-n2nc(C(C)(C)C)cc2CC2COC(C)(C(=O)N3CCN(C)CC3)OC2)cc1 (centres unmarked) [Example 105]"
measure_name = "inhibition at 10 µM"
quantitative_result = 10

[[record]]
compound = "Cc1oc(-c2ccccc2)nc1CC1COC(C)(C(=O)N2CCOCC2)OC1 (centres unmarked) [Example 11]"
measure_name = "inhibition at 10 µM"
quantitative_result = 30

[[record]]
compound = "Cc1oc(-c2ccccc2)nc1CC1COC(C)(C(=O)NOCc2ccccc2)OC1 (centres unmarked) [Example 1]"
measure_name = "inhibition at 10 µM"
quantitative_result = 30


I = Cc1ccc(-c2nc(CC3COC(C)(C(=O)N4CCOCC4)OC3)c(C)o2)cc1 (centres unmarked) [Example 65]
II = Cc1ccc(-c2nc(CC3COC(C)(C(=O)NCC4CCOCC4)OC3)c(C)o2)cc1 (centres unmarked) [Example 62]
Q: Please tell me which of the two, I or II , has the higher reported inhibition at 10 µM value. Write down the label of the entry you select.
Result: I

a = Cc1oc(-c2ccccc2)nc1CC1COC(C)(C(=O)NCC2CCOCC2)OC1 (centres unmarked) [Example 8]
b = Cc1nc(-c2ccc(C(F)(F)F)cc2)sc1CC1COC(C)(C(=O)N2CCOCC2)OC1 (centres unmarked) [Example 93]
Q: Compare reported inhibition at 10 µM values for a and b . Which is lower? Return value: the label identifying the chosen record.
Result: b
